Where do the numbers come from? From patent US20260365670A1.

# System: Ba/F3 cells expressing EGFR mutations
# TEST_NAME: Cell proliferation assay, Ba/F3 cells expressing EGFR mutations (CellTiter-Glo, 72 hours)
# Format: cell-based
# CONDITION_SET: BaF3 cells, EGFR DEL19-T790-C797S, CellTiter-Glo, read-out: DEL19-T790-C797S/BaF3 GI50
READOUT_TYPE: GI50 (nM)
Record the value in nM, omitting the unit from your answer.

Known results for compounds:
>  <COMPOUND>
Cn1ncc2c1OCCN1CC3CCC(C3)(C1)n1c(nc3ccc(N4CCN(C5CC5)CC4)cc31)NC(=O)c1cc-2c(=O)n(C)c1 (single isomer, unassigned) [Example A83B]

>  <SYSTEM>
Ba/F3 cells expressing EGFR mutations

>  <DISPLAY_UNIT>
nM

>  <GI50>
10

$$$$
>  <COMPOUND>
CN(C)[C@@H]1CCN(c2ccc3nc4n(c3c2)C23CCC(CN(CCOc5c(cnn5C)-c5cc(cn(C)c5=O)C(=O)N4)C2)C3)C1 (single isomer, unassigned) [Example A66D]

>  <SYSTEM>
Ba/F3 cells expressing EGFR mutations

>  <DISPLAY_UNIT>
nM

>  <GI50>
1.5

$$$$
>  <COMPOUND>
CN(C)CCCN(C)c1ccc2nc3n(c2c1)C12CCC(CN(CCOc4c(cnn4C)-c4cc(cn(C)c4=O)C(=O)N3)C1)C2 (single isomer, unassigned) [Example A89B]

>  <SYSTEM>
Ba/F3 cells expressing EGFR mutations

>  <DISPLAY_UNIT>
nM

>  <GI50>
3.2

$$$$
>  <COMPOUND>
CN1CCN(c2ccc3c(c2)nc2n3C34CCC(CN(CCOc5c(cnn5C)-c5cc(cn(C)c5=O)C(=O)N2)C3)C4)CC1 (centres unmarked) [Example A60A]

>  <SYSTEM>
Ba/F3 cells expressing EGFR mutations

>  <DISPLAY_UNIT>
nM

>  <GI50>
166

$$$$

With those in mind, consider the next compound.
Field GI50 (system: Ba/F3 cells expressing EGFR mutations) for entry CN1CCN(C2CCN(c3ccc4nc5n(c4c3)C34CCC(CN(CCOc6c(cnn6C)-c6cc(cn(C)c6=O)C(=O)N5)C3)C4)C2)CC1 (single isomer, unassigned) [Example A80B1] = 1
